system.name: AEA-DA lipid probe targets in Neuro2a cells (Mus musculus, UniProt Q8VDP6)
Sequence (Q8VDP6 whole entry): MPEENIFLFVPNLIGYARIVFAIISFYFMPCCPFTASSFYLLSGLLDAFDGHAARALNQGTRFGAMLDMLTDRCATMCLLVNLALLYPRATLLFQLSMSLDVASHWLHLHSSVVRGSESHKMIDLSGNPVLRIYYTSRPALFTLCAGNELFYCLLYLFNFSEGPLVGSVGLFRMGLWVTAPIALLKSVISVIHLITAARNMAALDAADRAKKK
reported.conditions: competitor 25 μM
measure: SILAC ratio, Cdipt

[
  {
    "molecule": "C=CCN(C)CCCCCCOc1ccc(C(=O)c2ccc(Br)cc2)c(F)c1 [Ro 48-8071, reference compound]",
    "system.name": "AEA-DA lipid probe targets in Neuro2a cells (Mus musculus, UniProt Q8VDP6)",
    "endpoint.result": 0.7
  },
  {
    "molecule": "O=C(/C=C/c1cccnc1)NCCCCC1CCN(C(=O)c2ccccc2)CC1 [FK-866, reference compound]",
    "system.name": "AEA-DA lipid probe targets in Neuro2a cells (Mus musculus, UniProt Q8VDP6)",
    "endpoint.result": 1.1
  },
  {
    "molecule": "CN1CCN(C(=O)c2[nH]c3ccc([N+](=O)[O-])cc3c2-c2ccccc2)CC1",
    "system.name": "AEA-DA lipid probe targets in Neuro2a cells (Mus musculus, UniProt Q8VDP6)",
    "endpoint.result": 1.0
  },
  {
    "molecule": "CN1CCN(C(=O)c2c(-c3ccccc3)c3cc([N+](=O)[O-])ccc3n2C)CC1",
    "system.name": "AEA-DA lipid probe targets in Neuro2a cells (Mus musculus, UniProt Q8VDP6)",
    "endpoint.result": 0.9
  }
]
